Every entry's value here was drawn from PubChem BioAssay (NCI).

# System: HL-60(TB) leukemia
# assay.info: NCI tumour cell line growth inhibition, 48 h
reported.endpoint: TGI

COC(=O)C1=C(O)C(C(=O)OC)[C@@]2(O)[C@@H](C(=O)OC)[C@H](C)[C@@H](C)[C@@H]1[C@@H]2C(=O)OC (stereo partly drawn)    > 100 µM
CCOC(CN(C)C(=S)Nc1cccc2ccccc12)OCC    > 10 µM

GET TGI where system = HL-60(TB) leukemia and item = O=C(OCC(OC(=O)c1ccccc1)C(OC(=O)c1ccccc1)C(OC(=O)c1ccccc1)c1cnn(-c2ccccc2)n1)c1ccccc1 (stereo not drawn) > 100 µM

* * *

Below, each of the compounds is paired with its reported TGI value.
# System: IGROV1 ovarian
# assay.info: NCI tumour cell line growth inhibition, 48 h

Examples with answers:
CCN(CC)CCNc1ccc2ncn3c4cc(OC)c(OC)c(=O)c4c(O)c1c23    35.6 µM
CC/C(Cl)=N\OC(=O)Nc1ccc(F)c([N+](=O)[O-])c1    33.8 µM
CCOC(=O)C1CN(C2CC2)CCC1=O (centres undefined)    > 100 µM

Now turn to the next compound.
Give the value of TGI reported for the following: O=C1CSC(c2ccc(-c3nc4ccccc4s3)cc2)=N1 > 100 µM

* * *

Below, each of the compounds is paired with its reported TGI value.
# Tested on: RXF 393 renal
# assay.info: NCI tumour cell line growth inhibition, 48 h

Examples with answers:
O=C(N/N=C/c1ccc([N+](=O)[O-])o1)c1ccc(O)cc1    73.8 µM
Cc1ncc([N+](=O)[O-])n1CCNS(=O)(=O)CCCn1ncnc1[N+](=O)[O-]    > 100 µM
Cc1cc2nc(-c3cc(C(C)(C)C)c(O)c(C(C)(C)C)c3)[nH]c2cc1C    > 100 µM
O=C(O)C12CC3(C(=O)O)CC(C(=O)O)(CC(C(=O)O)(C1)C3=O)C2=O    > 100 µM
Cc1ccc(-c2c(C#N)c(-c3ccc([N+](=O)[O-])cc3)c(C#N)c(=O)n2NS(=O)(=O)c2ccccc2)cc1    > 100 µM

Give the value of TGI reported for the following: O=C(CCCN1CCC2(CC1)C(=NC1CCCCC1)NC(=O)N2c1ccccc1)c1ccc(F)cc1 89 µM

Give the value of TGI reported for the following: CC1C(c2ccc3c(c2)OCO3)c2cc3c(cc2OC1N1CCOCC1)OCO3 (stereo unspecified) 51.9 µM

Give the value of TGI reported for the following: CCc1nc2cc3cccnc3c(Cl)c2[nH]c1=O 91.1 µM

Give the value of TGI reported for the following: COc1cc(OCc2ccc3nc(OC)c(OC)nc3c2)cc(OC)c1OC > 10 µM

Give the value of TGI reported for the following: CCOC(=O)C1CN(C2CC2)CCC1=O (stereo unspecified) > 100 µM

* * *

# System: IGROV1 ovarian
# assay.info: NCI tumour cell line growth inhibition, 48 h
reported.endpoint: GI50

Examples with answers:
N.N.NCCCCCCCCCN.O=C([O-])CC(=O)[O-].O=C([O-])CC(=O)[O-].[Pt+4].[Pt+4]    > 100 µM
Nc1ccccc1SC1CC(=O)N(c2ccc(Cl)c(Cl)c2)C1=O (stereo not drawn)    31 µM
S=C1SC2=Nc3ccccc3CN2C2=NCCN12    7.88 µM
Cn1cc(-c2ccc(-c3cncc(Cl)c3N3CCC4(CCNC4=O)CC3)cc2)cn1    68 µM

Give the value of GI50 reported for the following: COC(C(=O)[C@@H](O)[C@@H](C)O)[C@@H]1Cc2cc3cc(O[C@H]4C[C@@H](O[C@H]5C[C@@H](O)[C@H](O)C(C)O5)[C@H](O)C(C)O4)c(C)c(O)c3c(O)c2C(=O)[C@H]1O[C@H]1C[C@@H](O[C@H]2C[C@@H](O[C@H]3C[C@@H](O)[C@H](OC)C(C)O3)[C@@H](O)C(C)O2)[C@H](O)C(C)O1 (stereo partly drawn) 0.0239 µM

Give the value of GI50 reported for the following: COc1ccc2c(Oc3ccc(NC(=O)c4c(C)n(CC(C)(C)O)n(-c5ccccc5)c4=O)nc3)ccnc2c1 12.3 µM

Give the value of GI50 reported for the following: C/C(=N\NC(=S)N1CC2CCC(CC2)C1)c1ccccn1 < 0.01 µM

Give the value of GI50 reported for the following: C=C1CC[C@@H](C(C)C)C[C@@H]2[C@H]([C@H](O)C[C@]2(C)O)[C@@]2(C)CC[C@@H]1O2 17.2 µM
